Data provenance: the supplement of paper PMC10567573

B1: KCNAB2 (parent)
chain: SSIIHEIDSILGNKPYSKKDYRS

# Variants of: B1
# Assay Procedure: protein stability index of a GFP-peptide fusion (GPS, HEK-293T) (PSI 1-6); higher = more stable;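 further: lentivirally expressed fusions sorted by FACS into six bins by GFP to DsRed ratio, PSI derived from sequencing read proportions per bin multiplied by bin number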
# Test Conditions: c terminus: native
Quantity Kind: protein stability index

Input: Could you tell me which protein stability index is on file for K14G ?
Output: 2.69

Input: Could you tell me which protein stability index is on file for K19D ?
Output: 4.08

Input: Could you tell me which protein stability index is on file for E6V ?
Output: 3.15

Input: Could you tell me which protein stability index is on file for R22Q ?
Output: 4.29

Input: Could you tell me which protein stability index is on file for D20H ?
Output: 2.51

Input: Could you tell me which protein stability index is on file for I3W ?
Output: 1.72

Input: Could you tell me which protein stability index is on file for K19Q ?
Output: 3.87

Input: Could you tell me which protein stability index is on file for Y21V ?
Output: 3.27

Input: Could you tell me which protein stability index is on file for K18G ?
Output: 2.61

Input: Could you tell me which protein stability index is on file for N13H ?
Output: 3

Input: Could you tell me which protein stability index is on file for G12L ?
Output: 2.8

Input: Could you tell me which protein stability index is on file for N13S ?
Output: 2.59

Input: Could you tell me which protein stability index is on file for I4Q ?
Output: 4.26

Input: Could you tell me which protein stability index is on file for R22Y ?
Output: 3.24

Input: Could you tell me which protein stability index is on file for I7A ?
Output: 4.65

Input: Could you tell me which protein stability index is on file for S1Q ?
Output: 2.94

Input: Could you tell me which protein stability index is on file for E6G ?
Output: 2.82

Input: Could you tell me which protein stability index is on file for G12P ?
Output: 3.86

Input: Could you tell me which protein stability index is on file for S9E ?
Output: 3.66

Input: Could you tell me which protein stability index is on file for Y16P ?
Output: 3.6

Input: Could you tell me which protein stability index is on file for L11S ?
Output: 4.36

Input: Could you tell me which protein stability index is on file for E6P ?
Output: 2.9

Input: Could you tell me which protein stability index is on file for D20L ?
Output: 2.63

Input: Could you tell me which protein stability index is on file for S2E ?
Output: 4.02

Input: Could you tell me which protein stability index is on file for S23G ?
Output: 2.56

Input: Could you tell me which protein stability index is on file for I4T ?
Output: 3.95

Input: Could you tell me which protein stability index is on file for D8C ?
Output: 1.59

Input: Could you tell me which protein stability index is on file for I4W ?
Output: 1.4

Input: Could you tell me which protein stability index is on file for S2I ?
Output: 1.72

Input: Could you tell me which protein stability index is on file for S9H ?
Output: 2.8

Input: Could you tell me which protein stability index is on file for K14E ?
Output: 3.24

Input: Could you tell me which protein stability index is on file for S17C ?
Output: 3.79

Input: Could you tell me which protein stability index is on file for S23F ?
Output: 4.46

Input: Could you tell me which protein stability index is on file for L11G ?
Output: 4.19

Input: Could you tell me which protein stability index is on file for P15Y ?
Output: 2.63

Input: Could you tell me which protein stability index is on file for N13I ?
Output: 2.51

Input: Could you tell me which protein stability index is on file for I7K ?
Output: 3.45
